Here, each record is paired with measured MBC data.
Tested on: Candida albicans
Experiment: Antimicrobial activity against 10^7 CFU/ml Candida albicans ATCC 32354 after 22 hrs by serial microdilution method
Type: functional
Settings: ATCC 32354, 22 h
PROPERTY NAME: MBC (µg/mL)

{"COMPOUND STRUCTURE STRING": "CCCCCCCCC[N+]12CC[N+](CCCCC[N+]34CC[N+](CCCCCCCCC)(CC3)CC4)(CC1)CC2.[Br-].[Br-].[Br-].[Br-]", "TARGET UNDER TEST": "Candida albicans", "REPORTED RELATION": "<", "MEASURED": 1.6}
{"COMPOUND STRUCTURE STRING": "CCCCCCCCCCCC[N+]12CC[N+](CCCCC[N+]34CC[N+](CCCCCCCCCCCC)(CC3)CC4)(CC1)CC2.[Br-].[Br-].[Cl-].[Cl-]", "TARGET UNDER TEST": "Candida albicans", "REPORTED RELATION": "=", "MEASURED": 12.5}
{"COMPOUND STRUCTURE STRING": "CCCCCCCCCC[N+]12CC[N+](CCCCC[N+]34CC[N+](CCCCCCCCCC)(CC3)CC4)(CC1)CC2.[Br-].[Br-].[Br-].[Br-]", "TARGET UNDER TEST": "Candida albicans", "REPORTED RELATION": "<", "MEASURED": 1.6}
{"COMPOUND STRUCTURE STRING": "CCCCCCCCCCCCCC[N+]12CC[N+](CCCCC[N+]34CC[N+](CCCCCCCCCCCCCC)(CC3)CC4)(CC1)CC2.[Br-].[Br-].[Br-].[Br-]", "TARGET UNDER TEST": "Candida albicans", "REPORTED RELATION": "=", "MEASURED": 25}
{"COMPOUND STRUCTURE STRING": "O=C(O)c1cn(C2CC2)c2cc(N3CCNCC3)c(F)cc2c1=O", "TARGET UNDER TEST": "Candida albicans", "REPORTED RELATION": "=", "MEASURED": 100}
{"COMPOUND STRUCTURE STRING": "CCCCCCCC[N+]12CC[N+](CCCCC[N+]34CC[N+](CCCCCCCC)(CC3)CC4)(CC1)CC2.[Br-].[Br-].[Br-].[Br-]", "TARGET UNDER TEST": "Candida albicans", "REPORTED RELATION": "<", "MEASURED": 1.6}
